meta.source: PubChem BioAssay AID2315

test: A qHTS for Small Molecule Inhibitors of Shiga Toxin; note: 0% is about no effect
protocol-conditions: Vero cells, Shiga toxin protein synthesis inhibition reporter; at 38.7 µM
About 27,000 (9.3%) of roughly 290,000 compounds were called active. Cut-off read from the data, not from the text of the source: active = inhibition mostly above about 28% (no sharp cut-off); inactive = mostly below about 43%. The full list was thinned out, with actives kept by preference.
Would you mind answering with one of these outcomes? active, inactive

INPUT: Status in this test for O=C(c1ccccc1)N1CCC(CC2CC(c3ccc(Cl)cc3)=NO2)(C(=O)NCC2CCCCC2)CC1 (configuration not stated) ?
OUTPUT: inactive

INPUT: Status in this test for O=C(NC1CCCC1)C(c1c(F)cccc1Cl)N(C(=O)c1csnn1)C1CC1 (configuration not stated) ?
OUTPUT: inactive

INPUT: Status in this test for `COc1ccc(Cc2nnnn2CC(=O)O)cc1` ?
OUTPUT: inactive

INPUT: Status in this test for `Cn1sc(NC(=O)c2ccccc2)nc1=O` ?
OUTPUT: inactive

INPUT: Status in this test for `Cn1cccc1/C=N/NC(=O)CNc1cccc2ccccc12` ?
OUTPUT: inactive

INPUT: Status in this test for `O=C(CSc1nc2ccccc2[nH]1)c1cccs1` ?
OUTPUT: active

INPUT: Status in this test for `COc1ccc(Cc2cc(-c3ccc(F)cc3)n[nH]c2=O)cc1` ?
OUTPUT: active

INPUT: Status in this test for `Cn1c(NC(=O)c2ccccc2)nc2ccccc21` ?
OUTPUT: active

INPUT: Status in this test for `Cc1cccc(C)c1OC(=O)CSc1nnc(-c2ccccc2)o1` ?
OUTPUT: inactive

INPUT: Status in this test for `CCCCSc1nnc(-c2ccc(C)cc2)o1` ?
OUTPUT: active

INPUT: Status in this test for CCOC(=O)C1(Cc2ccccc2C)CCCN(S(C)(=O)=O)C1 (configuration not stated) ?
OUTPUT: inactive

INPUT: Status in this test for `Cc1onc(-c2ccccc2)c1C(=O)N1CCN(S(=O)(=O)c2ccccc2C(F)(F)F)CC1` ?
OUTPUT: inactive

INPUT: Status in this test for Nc1ncc(CN2CCCC(C(=O)Nc3ccc(-c4ccco4)cc3)C2)cn1 (configuration not stated) ?
OUTPUT: inactive

INPUT: Status in this test for `CCOC(=O)CSc1nnc(-c2ccncc2)o1` ?
OUTPUT: inactive

INPUT: Status in this test for `CN(Cc1nc2ccc(F)cc2[nH]1)Cc1nc(CC2CC2)no1` ?
OUTPUT: active

INPUT: Status in this test for `O=C(CSc1nc2ccccc2[nH]1)Nc1nc(-c2ccccc2)c(-c2ccccc2)o1` ?
OUTPUT: inactive

INPUT: Status in this test for `CN(Cc1ccccc1)C(=O)CSc1nc2ccccc2[nH]1` ?
OUTPUT: active

---

test: A qHTS for Small Molecule Inhibitors of Shiga Toxin; note: 0% is about no effect
protocol-conditions: Vero cells, Shiga toxin protein synthesis inhibition reporter; at 38.7 µM, active compounds read high
Out of some 290,000 compounds screened, about 27,000 (9.3%) were called active. What follows is part of a selection rich in actives, with near analogues and random picks from the rest.
Record form. Attribute: inhibition. Fill in for each entry.

INPUT: Sample O=C(NC1CC1)C(Cc1ccccc1)NS(=O)(=O)c1ccccc1F (stereo not given) — what was its inhibition?
OUTPUT: -4.61% (inactive)

INPUT: Sample `COc1ccc(CCNc2nc(C)cc(C)n2)cc1OC` — what was its inhibition?
OUTPUT: 23.6% (inactive)

INPUT: Sample `O=C(COc1ccc(Cl)cc1)Nc1ccc2c(c1)OCO2` — what was its inhibition?
OUTPUT: 71.8% (active)

INPUT: Sample CCOC(=O)c1cccc(NC(=O)CN2C(=O)C3CC=CCC3C2=O)c1 (stereo not given) — what was its inhibition?
OUTPUT: -2.13% (inactive)

INPUT: Sample `O=C(CCS(=O)(=O)Cc1ccccc1)Nc1ccc2c(c1)OCCO2` — what was its inhibition?
OUTPUT: -14.4% (inactive)

INPUT: Sample `CCn1c(COc2ccccc2)nnc1SCC(=O)Nc1ccc2c(c1)OCCO2` — what was its inhibition?
OUTPUT: 4.75% (inactive)

INPUT: Sample `CCCNC(=O)c1ccc(Cl)c(Cl)c1` — what was its inhibition?
OUTPUT: -6.36% (inactive)

INPUT: Sample `COc1ccccc1OCCn1c(SCC(N)=O)nc2ccccc21` — what was its inhibition?
OUTPUT: -12.1% (inactive)

INPUT: Sample `CCCC(=O)Nc1cccc(-c2cn3ccsc3n2)c1` — what was its inhibition?
OUTPUT: 22.4% (inactive)

INPUT: Sample `CC(C)(C)C(=O)Nc1ccc(-c2cn3cccnc3n2)cc1` — what was its inhibition?
OUTPUT: 32.2% (inactive)

INPUT: Sample `c1ccc(-c2cn3c(n2)CCc2ccc4cccnc4c2-3)cc1` — what was its inhibition?
OUTPUT: -6.84% (inactive)

INPUT: Sample COc1ccccc1CNC(=O)C1CCN(S(=O)(=O)c2ccc3c(c2)CC(C)N3C(=O)C2CC2)CC1 (stereo not given) — what was its inhibition?
OUTPUT: -10.2% (inactive)

INPUT: Sample `O=C(Nc1cccc2ccccc12)c1onc2c1CCCC2` — what was its inhibition?
OUTPUT: 80.7% (active)

INPUT: Sample `O=C(O)c1ccccc1-c1ccccc1C(=O)Nc1cccc2ccccc12` — what was its inhibition?
OUTPUT: -18.7% (inactive)

INPUT: Sample `CCOc1ccc(NCCC(=O)c2ccc3c(c2)OCO3)cc1` — what was its inhibition?
OUTPUT: 21.5% (inactive)
